Tested on: Canis familiaris
Assay: Toxicity in dog assessed as change in cardiovascular variables up to 5 mg/kg by telemetry study
Assay type: organism-based, Canis lupus familiaris, Heart
Design: dose 5 mg/kg
Details: in vivo
Metric: Activity

1) CN1CC(C(=O)NCCCN2CCC3(CCc4ccccc43)CC2)CC1=O (stereo not drawn) | Non-toxic
2) Cc1ccc2nc(NC(=O)c3ccc(Cl)cc3)nc(N[C@H]3CCCC[C@H]3NC(=N)N)c2c1 | Non-toxic
3) CCc1ccc(OCc2ccccc2C(=O)Nc2ccc3nc(C)cc(N)c3c2)cc1 | Non-toxic
4) CCN1CCN(c2cc3[nH]c(C(=O)[C@]4(C)CC[C@](C)(O)CC4)nc3cc2C)CC1 | Non-toxic
5) COC(=O)C1Cc2ccccc2N1C(=O)CCN1CCC2(CCc3ccccc32)CC1 (stereo not drawn) | Non-toxic
6) Cc1cccc2c1CC[C@H](CN1CCC(c3c(Cl)cccc3Cl)CC1)C[C@@H]2O | Non-toxic
7) O[C@H]1C[C@H](CN2CC[C@H](c3ccc(F)cc3Cl)[C@@H](O)C2)Cc2cccnc21 | Non-toxic
8) O=C(NCCCN1CCC2(CC1)OCc1ccccc12)[C@H]1CCCN1Cc1ccccc1 | Non-toxic
